Test target: T1, full length GST-CHMP6_(1−201) (human, UniProt Q96FZ7 1-201)
T1 sequence (looked up): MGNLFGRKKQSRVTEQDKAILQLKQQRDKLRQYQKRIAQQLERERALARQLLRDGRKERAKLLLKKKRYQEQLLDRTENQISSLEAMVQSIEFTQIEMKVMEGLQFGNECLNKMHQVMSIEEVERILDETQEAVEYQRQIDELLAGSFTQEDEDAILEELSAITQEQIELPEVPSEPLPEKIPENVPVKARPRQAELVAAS
Assay name: SPR
Measure: pKd
Give bare numbers, as −log10 of the molar value.

Problem: Supply recorded pKd for VPS4A MIT domain (VPS4A residues 1−84) (domain or fragment, human, UniProt Q9UN37 1-84, looked up) MTTSTLQKAIDLVTKATEEDKAKNYEEALRLYQHAVEYFLHAIKYEAHSDKAKESIRAKCVQYLDRAEKLKDYLRSKEKHGKKP here.
Result: 4.48

These entries and their values trace back to paper PMC2586299.
